Cited source for all entries: patent US10669272B2

Target: human DGKζ (Homo sapiens)
Construct: TVMV protease cleavage site (C); Hexa-His (C); made in house; host or cells: Sf9 insect cells (baculovirus, Bac-to-Bac)
Sequence (Q13574 with tags, fused parts or gaps isoform Q13574-4): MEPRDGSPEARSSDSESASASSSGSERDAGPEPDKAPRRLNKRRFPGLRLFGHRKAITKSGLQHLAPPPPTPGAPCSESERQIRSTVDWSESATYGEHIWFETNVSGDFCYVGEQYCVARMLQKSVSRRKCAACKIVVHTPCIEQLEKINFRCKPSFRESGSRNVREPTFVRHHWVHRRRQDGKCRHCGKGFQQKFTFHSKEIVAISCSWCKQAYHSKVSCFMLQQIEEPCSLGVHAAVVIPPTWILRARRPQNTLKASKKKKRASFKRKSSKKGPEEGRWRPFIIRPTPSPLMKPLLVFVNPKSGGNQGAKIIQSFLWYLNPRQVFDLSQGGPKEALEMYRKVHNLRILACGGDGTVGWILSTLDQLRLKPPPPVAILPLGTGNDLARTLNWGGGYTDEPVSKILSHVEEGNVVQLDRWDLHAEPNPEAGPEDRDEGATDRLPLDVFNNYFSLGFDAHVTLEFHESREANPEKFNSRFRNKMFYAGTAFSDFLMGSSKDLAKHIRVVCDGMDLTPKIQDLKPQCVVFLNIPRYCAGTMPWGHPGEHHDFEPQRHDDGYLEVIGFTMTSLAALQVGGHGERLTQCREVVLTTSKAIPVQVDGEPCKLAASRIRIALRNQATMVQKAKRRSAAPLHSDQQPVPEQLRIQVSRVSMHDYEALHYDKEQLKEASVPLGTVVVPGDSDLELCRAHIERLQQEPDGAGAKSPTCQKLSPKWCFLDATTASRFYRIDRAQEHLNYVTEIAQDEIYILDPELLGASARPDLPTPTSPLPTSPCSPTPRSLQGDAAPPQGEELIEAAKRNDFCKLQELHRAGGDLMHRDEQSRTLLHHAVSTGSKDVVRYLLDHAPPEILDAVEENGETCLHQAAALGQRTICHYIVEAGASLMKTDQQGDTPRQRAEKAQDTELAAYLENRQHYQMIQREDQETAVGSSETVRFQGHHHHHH
Assay: DGKζ LIPGLO assay (extruded liposome substrate), in vitro DGK inhibition
Assay type: biochemical
Settings: DGKζ liposome (LIPGLO) assay; read-out: DGKz LIPGLO IC50
Listed below: log10 of IC50 values for each entry.
result_type: log10 of IC50 (log10 of the value in µM)

INSERT INTO measurements (compound, system, value_observed) VALUES
  ('CC(c1c(F)cccc1F)N1C[C@H](C)N(c2c(C#N)c(=O)n(C)c3ccc(C#N)nc23)C[C@H]1C (single isomer, unassigned) [Example 780]', 'human DGKζ (Homo sapiens)', 1.49),
  ('COc1ccc(C(c2ccc(F)cc2)N2C[C@H](C)N(c3c(C#N)c(=O)n(C)c4ccc(C#N)nc34)C[C@H]2C)nc1 (stereo partly drawn)', 'human DGKζ (Homo sapiens)', 0.32),
  ('Cc1cc(C(c2ccc(F)cc2)N2C[C@H](C)N(c3cc(=O)n(C)c4ccc(C#N)nc34)C[C@H]2C)no1 (single isomer, unassigned) [Example 734]', 'human DGKζ (Homo sapiens)', -0.54),
  ('COC(=O)c1cccc(C(C)N2CCN(c3c(C#N)c(=O)n(C)c4ccc(C#N)nc34)C[C@H]2C)c1 (single isomer, unassigned) [Example 983]', 'human DGKζ (Homo sapiens)', 0.86),
  ('C[C@@H]1CN(c2c(C#N)c(=O)n(C)c3ccc(C#N)nc23)[C@@H](C)CN1C(c1ccc(F)cc1)c1cnn(C)c1 (stereo partly drawn) [Example 846]', 'human DGKζ (Homo sapiens)', 0.93),
  ('CC(c1ccc(Cl)cc1)N1CCN(c2c(C#N)c(=O)n(C)c3ccc(C#N)nc23)C[C@H]1C (single isomer, unassigned) [Example 978]', 'human DGKζ (Homo sapiens)', 0.69);

###

Target: human DGKζ (Homo sapiens)
Construct: TVMV protease cleavage site (C); Hexa-His (C); made in house; host or cells: Sf9 insect cells (baculovirus, Bac-to-Bac)
Assay: DGKζ LIPGLO assay (extruded liposome substrate), in vitro DGK inhibition
Format: biochemical
Conditions: liposome (LIPGLO) assay; read-out: DGKz LIPGLO IC50
pIC50: −log10 of the molar value.
result_type: pIC50

INSERT INTO measurements (compound, value_observed) VALUES
  ('Cc1c(N2CCN(C(c3ccc(F)cc3)c3ccc(F)cc3)[C@H](C)C2)c2nc(C#N)ccc2n(C)c1=O', 5.55),
  ('C[C@@H]1CN(c2cc(=O)n(C)c3ccc(C#N)nc23)[C@@H](C)CN1Cc1ccc(OC(F)(F)F)cc1C#N', 5.17),
  ('Cn1c(=O)cc(N2CCN(C(c3ccc(F)cc3)c3ccc(F)cc3)CC2C#N)c2nc(C#N)ccc21 (single isomer, unassigned) [Example 143]', 5.19);

###

Target: human DGKζ (Homo sapiens)
Construct: TVMV protease cleavage site (C); Hexa-His (C); made in house; host or cells: Sf9 insect cells (baculovirus, Bac-to-Bac)
Assay: DGKζ LIPGLO assay (extruded liposome substrate), in vitro DGK inhibition
Format: biochemical
Conditions: liposome (LIPGLO) assay; read-out: DGKz LIPGLO IC50
pIC50: −log10 of the molar value.
Assign label 1 to entries whose pIC50 meets or exceeds 6; assign label 0 to the rest.

INSERT INTO assay_data (compound, discrete_label) VALUES
  ('COC(=O)C1CN(c2c(C#N)c(=O)n(C)c3ccc(Br)nc23)CCN1C(c1ccc(F)cc1)c1ccc(F)cc1 (centres unmarked)', 'label 0'),
  ('CC(C)Oc1cc(F)ccc1CN1C[C@H](C)N(c2cc(=O)n(C)c3ccc(C#N)nc23)C[C@H]1C', 'label 0'),
  ('C[C@H]1CN(C(c2ccc(Cl)cc2)c2ccc(Cl)cc2)[C@H](CO)CN1c1cc(=O)n(C)c2ccc(C#N)nc12', 'label 0'),
  ('C[C@@H]1CN(c2cc(=O)n(C)c3ccc(C#N)nc23)[C@@H](C)CN1C(c1ccc(F)cc1)c1ccns1 (some centres unmarked) [Example 719]', 'label 1'),
  ('COC(=O)C1CN(c2cc(=O)n(C)c3ccc(C#N)nc23)CCN1C(c1ccc(F)cc1)c1ccc(F)cc1 (single isomer, unassigned) [Example 40]', 'label 1'),
  ('C[C@@H]1CN(c2cc(=O)[nH]c3ccc(C#N)nc23)[C@@H](C)CN1C(c1ccc(F)cc1)c1ccc(C#N)cc1 (single isomer, unassigned) [Example 1337]', 'label 0'),
  ('COC[C@H]1CN(C(c2ccc(F)cc2)c2ccc(F)cc2)[C@H](C)CN1c1cc(=O)n(C)c2ccc(C#N)nc12', 'label 1'),
  ('C[C@@H]1CN(c2cc(=O)n(C)c3ccc(C#N)nc23)[C@@H](C)CN1C(c1ccc(F)cc1)c1ccc(C(F)(F)F)cn1 (single isomer, unassigned) [Example 681]', 'label 1'),
  ('Cn1c(=O)cc(N2CCN(C(c3ccc(F)cc3)c3ccc(F)cc3)CC2c2ccccc2)c2nc(C#N)ccc21 (single isomer, unassigned) [Example 155]', 'label 0'),
  ('Cc1ccc(C(c2ccc(C)cn2)N2C[C@H](C)N(c3cc(=O)n(C)c4ccc(C#N)nc34)C[C@H]2C)cc1 (single isomer, unassigned) [Example 454]', 'label 1');

###

System: Human venous whole blood
Experiment: Human whole blood IFN-γ assay;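 also: blood from healthy donors exposed to compound for 1 h before stimulation with anti-CD3 and anti-CD28 at 1 µg/mL each, IFN-γ quantified in supernatant by AlphaLISA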
Assay type: cell-based
Conditions: Homo sapiens, 24 h, human whole blood, anti-CD3 plus anti-CD28, 24 hours; 3 μM reference compound = 100% activation; read-out: INFg Whole Blood Normalized Agonist EC50
EC50 values by entry
result_type: EC50 (µM)

INSERT INTO results (compound, system, result_type, value_observed) VALUES
  ('C[C@@H]1CN(c2c(C#N)c(=O)n(C)c3ccc(C#N)nc23)[C@@H](C)CN1C(c1ccc(F)cc1)c1cncn1C (stereo partly drawn)', 'Human venous whole blood', 'EC50', 20),
  ('C[C@@H]1CN(c2c(C#N)c(=O)n(C)c3ccc(C#N)nc23)CCN1C(c1ccc(F)cc1)c1ncccc1F (single isomer, unassigned)', 'Human venous whole blood', 'EC50', 2.8),
  ('C[C@@H]1CN(c2c(C#N)c(=O)n(C)c3ccc(C#N)nc23)CCN1C(c1ccc(F)cc1)c1cocn1 (stereo partly drawn)', 'Human venous whole blood', 'EC50', 2.5),
  ('C[C@@H]1CN(c2c(C#N)c(=O)n(C)c3ccc(C#N)nc23)CCN1C(c1ccc(F)cc1)c1cncn1C (single isomer, unassigned)', 'Human venous whole blood', 'EC50', 20),
  ('C[C@@H]1CN(c2c(C#N)c(=O)n(C)c3ccc(C#N)nc23)[C@@H](C)CN1C(c1ccc(F)cc1)c1cnn(C)c1 (stereo partly drawn)', 'Human venous whole blood', 'EC50', 5.1),
  ('CCc1ccc(C(c2ccc(F)cc2)N2C[C@H](C)N(c3c(C#N)c(=O)n(C)c4ccc(C#N)nc34)C[C@H]2C)cc1 (single isomer, unassigned)', 'Human venous whole blood', 'EC50', 2.1),
  ('CC(c1ccc(Br)cc1)N1CCN(c2c(C#N)c(=O)n(C)c3ccc(C#N)nc23)C[C@H]1C (single isomer, unassigned)', 'Human venous whole blood', 'EC50', 20),
  ('CCc1ccc(C(c2ccc(F)cc2)N2CCN(c3c(C#N)c(=O)n(C)c4ccc(C#N)nc34)C[C@H]2C)cc1 (stereo partly drawn)', 'Human venous whole blood', 'EC50', 2.2),
  ('C[C@@H]1CN(c2c(C#N)c(=O)n(C)c3ccc(C#N)nc23)CCN1Cc1ccc2ccccc2n1', 'Human venous whole blood', 'EC50', 5.8),
  ('Cc1cccc(C(c2ccc(F)cc2)N2CCN(c3c(C#N)c(=O)n(C)c4ccc(C#N)nc34)C[C@H]2C)n1 (single isomer, unassigned)', 'Human venous whole blood', 'EC50', 1.3),
  ('CC(c1ccccc1C(F)(F)F)N1CCN(c2c(C#N)c(=O)n(C)c3ccc(C#N)nc23)C[C@H]1C (single isomer, unassigned)', 'Human venous whole blood', 'EC50', 20),
  ('Cc1cccc(CN2CCN(c3c(C#N)c(=O)n(C)c4ccc(C#N)nc34)C[C@H]2C)n1', 'Human venous whole blood', 'EC50', 20);

###

Target: human DGKα (Homo sapiens)
Construct: TVMV protease cleavage site (C); Hexa-His (C); made in house; host or cells: Sf9 insect cells (baculovirus, Bac-to-Bac)
Sequence (P23743 with tags, fused parts or gaps): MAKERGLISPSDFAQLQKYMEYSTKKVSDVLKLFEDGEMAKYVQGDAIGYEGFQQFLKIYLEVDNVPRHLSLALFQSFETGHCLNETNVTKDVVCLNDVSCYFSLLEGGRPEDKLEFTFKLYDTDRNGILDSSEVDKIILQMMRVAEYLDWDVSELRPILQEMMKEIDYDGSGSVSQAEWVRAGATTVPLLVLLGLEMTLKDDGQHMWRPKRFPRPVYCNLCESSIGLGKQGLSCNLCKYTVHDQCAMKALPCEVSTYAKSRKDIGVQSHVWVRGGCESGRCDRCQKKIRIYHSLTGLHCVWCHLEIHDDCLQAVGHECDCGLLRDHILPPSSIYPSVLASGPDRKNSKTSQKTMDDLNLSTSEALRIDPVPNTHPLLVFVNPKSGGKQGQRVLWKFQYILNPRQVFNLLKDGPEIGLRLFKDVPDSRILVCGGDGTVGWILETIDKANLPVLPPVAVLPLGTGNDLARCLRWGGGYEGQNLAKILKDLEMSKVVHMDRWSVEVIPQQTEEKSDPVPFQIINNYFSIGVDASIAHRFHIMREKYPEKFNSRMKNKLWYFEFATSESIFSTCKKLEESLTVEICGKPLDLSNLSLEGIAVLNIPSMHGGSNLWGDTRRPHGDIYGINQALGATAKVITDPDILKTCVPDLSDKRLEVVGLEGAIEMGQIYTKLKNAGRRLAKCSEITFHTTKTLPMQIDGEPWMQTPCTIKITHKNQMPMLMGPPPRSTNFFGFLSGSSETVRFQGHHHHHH
Assay: DGKα LIPGLO assay (extruded liposome substrate), in vitro DGK inhibition
Format: biochemical
Details: DGKα liposome (LIPGLO) assay; read-out: DGKa LIPGLO IC50
pIC50: −log10 of the molar value.
Items are presented alongside their recorded pIC50.
result_type: pIC50

INSERT INTO results (compound, value_observed) VALUES
  ('CC(c1c(F)cccc1F)N1C[C@H](C)N(c2c(C#N)c(=O)n(C)c3ccc(C#N)nc23)C[C@H]1C (single isomer, unassigned) [Example 781]', 7.13),
  ('Cc1ccc(C(C)N2C[C@H](C)N(c3c(C#N)c(=O)n(C)c4ccc(C#N)nc34)C[C@H]2C)cc1 (single isomer, unassigned) [Example 785]', 6.16),
  ('C[C@@H]1CN(c2c(C#N)c(=O)n(C)c3ccc(C#N)nc23)[C@@H](C)CN1C(c1ccccc1)c1ccc(Cl)cc1 (some centres unmarked) [Example 834]', 4.66),
  ('Cc1ccc(C(c2ccc(F)cn2)N2CCN(c3c(C#N)c(=O)n(C)c4ccc(C#N)nc34)C[C@H]2C)cc1 (some centres unmarked) [Example 899]', 6.20),
  ('C[C@@H]1CN(c2cc(=O)n(C)c3ccc(C#N)nc23)[C@@H](C)CN1C(c1ccc(F)cc1)c1nnnn1C(C)(C)C (single isomer, unassigned) [Example 771]', 5.20),
  ('C[C@@H]1CN(c2c(C#N)c(=O)n(C)c3ccc(C#N)nc23)CCN1Cc1ccc(C(C)(C)C)cc1', 5.14),
  ('Cc1cc(CN2CCN(c3c(C#N)c(=O)n(C)c4ccc(C#N)nc34)C[C@H]2C)ccc1F', 5.49),
  ('CC(C)c1nnc(C(c2ccc(F)cc2)N2C[C@H](C)N(c3cc(=O)n(C)c4ccc(C#N)nc34)C[C@H]2C)s1 (single isomer, unassigned) [Example 773]', 6.12),
  ('C[C@@H]1CN(c2c(C#N)c(=O)n(C)c3ccc(C#N)nc23)CCN1C(c1ccc(F)cc1)c1cccc(C(F)(F)F)n1 (single isomer, unassigned) [Example 921]', 4.64),
  ('C[C@@H]1CN(c2c(C#N)c(=O)n(C)c3ccc(C#N)nc23)CCN1C(c1ccc(F)cc1)c1cocn1 (some centres unmarked) [Example 1023]', 5.44),
  ('CC(c1ccc(OC(F)(F)F)cc1)N1C[C@H](C)N(c2c(C#N)c(=O)n(C)c3ccc(C#N)nc23)C[C@H]1C (single isomer, unassigned) [Example 801]', 7.17);
